Entries and their measured TGI follow.
system: EKVX NSCLC; assay: NCI tumour cell line growth inhibition, 48 h
measured attribute: TGI (µM)

> print(dat)
                                    molecule  measured.attribute  limit.qualifier  reported
 1  COc1ccc(C2=C(Cl)c3cc(OC)c(OC)cc3C2Cl)cc1OC (stereo not given)                 TGI                =      50.5
 2    CC(=O)Nc1ccccc1SCCSSCCSc1ccccc1NC(C)=O                 TGI                >       100
 3   CCOC(=O)C1=C(NC)OC/C1=N\NC(=O)c1ccccc1O                 TGI                >       100
 4  CN(C)CCNC(=O)c1cccc2c(NCC(=O)O)c3ccccc3nc12                 TGI                =      56.4
 5       Cc1n[nH]c(=O)c2cc(-c3ccccc3)[nH]c12                 TGI                >       100
 6  C=C1CC2OC2(C(=O)O[C@H]2CCC3[C@@H]4CCC5=CC(=O)CC[C@]5(C)C4CC[C@@]32C)C1=O (stereo not given in full)                 TGI                =        48
 7  CCOC(=O)c1sc2c(c1OC(=O)c1cccs1)c(=O)n(-c1ccccc1)c(=S)n2-c1ccccc1                 TGI                =      79.5
 8  COc1ccc(NS(=O)CCCc2ccccc2)cc1 (stereo not given)                 TGI                >       100
 9  CN1CCN(Cc2ccc(NC(=O)c3cncc(C#Cc4cnc(N)c5ccncc45)c3)cc2C(F)(F)F)CC1                 TGI                >      16.8
10  COCn1c2ccc(OC(C)=O)cc2c2c(=O)oc(N(C)C)nc21                 TGI                >       100

* * *

test system: A549 NSCLC; assay: NCI tumour cell line growth inhibition, 48 h
measured attribute: GI50

> print(dat)
                                   molecule  measured.attribute  reported
1  O=C(/C(=C/c1ccc([N+](=O)[O-])cc1)c1ccccc1)c1ccccc1                GI50    3.8 µM
2  O=[N+]([O-])c1cccc(-c2nc3sccn3c2-c2ccnc(NCCCNS(=O)(=O)c3cccc(F)c3)n2)c1                GI50   2.68 µM
3  Cc1ccc(C2=NOC3=c4ccccc4=CSC3=C2c2ccc([N+](=O)[O-])cc2)cc1                GI50   24.5 µM
4  CC1=C(CCC(C)N(C)Cc2ccc(OCCCN3CCCC3)cc2)C(C)(C)CCC1 (centres undefined)                GI50   6.48 µM
5  O=C(c1ccccc1)C(CN1CCOCC1)c1ccccc1 (centres undefined)                GI50   3.94 µM
6  c1ccc2c(c1)c(NCCCCN1CCCCC1)cc1c3ccccc3c(NCCCCN3CCCCC3)cc21                GI50   21.8 µM
7                  Clc1cc(Cl)c(OCC#CI)cc1Cl                GI50   16.8 µM
8  COC(=O)Cn1c2c(c3c(O)cccc31)C(=O)c1ccccc1-2                GI50  > 100 µM
9  N#C/C(=C\c1c(-c2ccccc2)[nH]c2ccccc12)S(=O)(=O)c1ccccc1                GI50   3.74 µM

* * *

system: NCI-H23 lung; assay: NCI tumour cell line growth inhibition, 48 h
measured attribute: TGI (µM)

molecule	measured attribute	display unit	limit qualifier	reported
CCC1CN2CCc3cc(OC)c(OC)cc3C2CC1CC1c2cc(OC)c(OC)cc2CCN1C(=O)C1CCCN1C(=O)OCc1ccccc1 (stereo not drawn)	TGI	µM	=	32.7
O=c1oc2ccccc2c2c(=O)c3ccc(OC/C(=N/O)c4ccc(Cl)cc4)cc3oc12	TGI	µM	=	45.1
COc1ccc(NC2Oc3cc4c(cc3C(c3cccc(OC)c3OC)C2C)OCO4)cc1 (stereo not drawn)	TGI	µM	=	79.5
O=C1C(=O)N(c2ccc(Cl)c(Cl)c2)C(=O)C(=O)C1c1nc2ccccc2s1	TGI	µM	>	100
CN(C)CCNC(=O)c1cccc2c(NCC(=O)O)c3ccccc3nc12	TGI	µM	=	45.1
COc1ccc(-c2c3c(nc4nc(SCCc5ccccc5)nc(N)c24)CCCC3)cc1OC	TGI	µM	>	100
C[C@@H]1CC[C@H]2C(COCCOCC3=C(C(F)(F)F)O[C@@H]4O[C@@]5(C)CC[C@H]6[C@H](C)CC[C@@H]3[C@@]46OO5)=C(C(F)(F)F)O[C@@H]3O[C@@]4(C)CC[C@@H]1[C@]32OO4	TGI	µM	>	100
CN1CCN(Cc2ccc(NC(=O)c3cncc(C#Cc4cnc(N)c5ccncc45)c3)cc2C(F)(F)F)CC1	TGI	µM	=	6.79

* * *

test system: HT29 colon; assay: NCI tumour cell line growth inhibition, 48 h; in the data active = GI50 below about 0.43 µM; inactive = the rest
Outcome codes: active, inactive

> print(dat)
                                   molecule       cat
1  C=CC(=O)N(C)[C@H]1C[C@H]2OC(C)(C1OC)n1c3ccccc3c3c4c(c5c6ccccc6n2c5c31)C(=O)NC4 (stereo not given in full)    active
2  O=C(/C(=C/c1ccc([N+](=O)[O-])cc1)c1ccccc1)c1ccccc1  inactive
3  COc1ccc(-c2cc(-c3ccccc3)nc(SCCCC(=O)NO)n2)cc1  inactive
4  Cc1ccc(-c2cc(-c3ccc(C)cc3)nc(NCCNc3ccnc4cc(Cl)ccc34)n2)cc1  inactive
5  COc1cccc(NC(=O)c2sc3nc4c(cc3c2N)CN(Cc2ccccc2)CC4)c1  inactive

* * *

test system: OVCAR-3 ovarian; experiment: NCI tumour cell line growth inhibition, 48 h
measured attribute: GI50

> print(dat)
                                    compound     reported
 1  CCN(C(=O)N1CCN(c2cc3c(cc2F)c(=O)c(C(=O)O)cn3C2CC2)CC1)c1nc(-c2ccc(C)cc2)cs1       368 nM
 2  N=C(N)c1ccc(N2CCCN(c3ccc(C(=N)N)cc3)CC2)cc1     72400 nM
 3  N#C/C(=C\c1c(-c2ccccc2)[nH]c2ccccc12)S(=O)(=O)c1ccccc1      1140 nM
 4  C=C1CC[C@@H]2[C@](C)(COC(C)=O)[C@@H](O)CC[C@@]2(C)[C@@H]1COc1ccc2ccc(=O)oc2c1  > 100000 nM
 5            Cc1cc2c3ccc(C)[n+](C)c3ccc2n1C      3450 nM
 6           C/C(=N\Nc1ccc2ccccc2n1)c1ccccn1    < 19.2 nM
 7  O=C(C1CCCCC1)[C@@H]1[C@]2(C(=O)NC3CCCCC32)[C@@H]2CCCN2[C@@]12C(=O)NC1CCC(Cl)CC12 (stereo not given in full)     78200 nM
 8  CCN=C1C=CC(=C(c2ccc(N)cc2)c2ccc(N(CC)CC)c(C)c2)C=C1       368 nM
 9    O=C1C(=O)c2c(nc3ccc(Cl)cn23)-c2ccccc21       249 nM
10  O=C(c1ccccc1)C(CN1CCOCC1)c1ccccc1 (stereo not given)       465 nM

* * *

test system: HT29 colon; experiment: NCI tumour cell line growth inhibition, 48 h
measured attribute: GI50

> print(dat)
                                    compound  measured.attribute  reported
 1  O=C1c2ccccc2-c2c1c1ccc([N+](=O)[O-])cc1c(=O)n2CCCBr                GI50  > 100 µM
 2         CN(C)CCCN1c2ccccc2CCc2ccc(Cl)cc21                GI50   3.38 µM
 3  COc1ccc(-c2n[nH]nc2-c2cc(OC)c3c(c2OC)OCO3)cc1                GI50   0.48 µM
 4  COC1CC(OS(=O)(=O)c2ccc(C)cc2)C(OC(=O)c2ccccc2)C(C)O1 (stereo unspecified)                GI50  > 100 µM
 5                         Nc1ncnc2[nH]ncc12                GI50   1.83 µM
 6  C=CC(=O)Nc1cccc(C)c1Nc1cc(-c2cccnc2Cc2c(C)c(OC)cc(OC)c2C)ncn1                GI50   20.3 µM
 7      O=c1[nH]c2ccccc2nc1-c1c[nH]c2ccccc12                GI50  > 100 µM
 8  N#Cc1c(N/N=C/c2c(Cl)cccc2Cl)nc(N)nc1N1CCOCC1                GI50   19.4 µM
 9     O=C(/C(=C/c1ccccc1)CN1CCCCC1)c1ccccc1                GI50  0.518 µM
10         CC(C)(C)c1ccc(OCCCCCCN2CCNCC2)cc1                GI50   2.64 µM
11  Cc1c2cc[n+](CCN3CCCCC3)cc2c(C)c2c1[nH]c1ccc(O)cc12                GI50   4.67 µM
